In this section we review reported Kd values for a set of binders.
Target: T1, CD52 peptide #741
T1 construct: also called CD52 peptide #741 chip
Assay: BIACORE (SPR), CD52 peptide #741 chip, preliminary constant; antibody at week 0 (before incubation)
// return numeric value only (unit: nM, not printed)

binder	Kd (nM)
Ab20 (antibody, human IgG1, kappa, V domains shown) VH: EVQLVESGGGLVQPGGSLRLSCAASGFPFSNYWMNWVRQAPGKGLEWVGQIRLKSNNYATHYAESVKGRFTISRDDSKNSLYLQMNSLKTEDTAVYYCTPIDYWGQGTTVTVSS VL: DIVMTQTPLSLSVTPGQPASISCKSSQSLLYSNQKTYLNWVLQKPGQSPQRLIYLVSKLDSGVPDRFSGSGSGTDFTLKISRVEAEDVGVYYCVQGSHFHTFGQGTKLEIKR	3.49
Ab10 (antibody, human IgG1, kappa, V domains shown) VH: EVQLVESGGGLVQPGGSLRLSCAASGFPFSNYWMNWVRQAPGKGLEWVGQIRLKSNNYATHYAESVKGRFTISRDDSKNSLYLQMNSLKTEDTAVYYCTPIDYWGQGTTVTVSS VL: DIVMTQTPLSLSVTPGQPASISCKSSQSLLYSNAKTYLNWVLQKPGQSPQRLIYLVSKLDSGVPDRFSGSGSGTDFTLKISRVEAEDVGVYYCVQGSHFHTFGQGTKLEIKR	5.63
Ab24 (antibody, human IgG1, kappa, V domains shown) VH: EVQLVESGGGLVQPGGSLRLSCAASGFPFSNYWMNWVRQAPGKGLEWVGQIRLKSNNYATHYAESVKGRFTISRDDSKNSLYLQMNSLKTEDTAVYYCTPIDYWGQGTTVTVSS VL: DIVMTQTPLSLSVTPGQPASISCKSSQSLLYSNVKTYLNWVLQKPGQSPQRLIYLVSKLDSGVPDRFSGSGSGTDFTLKISRVEAEDVGVYYCVQGSHFHTFGQGTKLEIKR	5.15

What measured Kd goes with Ab21 (antibody, human IgG1, kappa, V domains shown) VH: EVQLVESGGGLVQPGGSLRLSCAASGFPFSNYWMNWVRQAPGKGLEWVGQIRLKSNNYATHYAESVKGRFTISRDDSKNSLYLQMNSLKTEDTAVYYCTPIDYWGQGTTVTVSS VL: DIVMTQTPLSLSVTPGQPASISCKSSQSLLYSNRKTYLNWVLQKPGQSPQRLIYLVSKLDSGVPDRFSGSGSGTDFTLKISRVEAEDVGVYYCVQGSHFHTFGQGTKLEIKR ?
2.05
